System: Peroxisome proliferator-activated receptor delta (Homo sapiens)
Sequence (Q03181 whole entry): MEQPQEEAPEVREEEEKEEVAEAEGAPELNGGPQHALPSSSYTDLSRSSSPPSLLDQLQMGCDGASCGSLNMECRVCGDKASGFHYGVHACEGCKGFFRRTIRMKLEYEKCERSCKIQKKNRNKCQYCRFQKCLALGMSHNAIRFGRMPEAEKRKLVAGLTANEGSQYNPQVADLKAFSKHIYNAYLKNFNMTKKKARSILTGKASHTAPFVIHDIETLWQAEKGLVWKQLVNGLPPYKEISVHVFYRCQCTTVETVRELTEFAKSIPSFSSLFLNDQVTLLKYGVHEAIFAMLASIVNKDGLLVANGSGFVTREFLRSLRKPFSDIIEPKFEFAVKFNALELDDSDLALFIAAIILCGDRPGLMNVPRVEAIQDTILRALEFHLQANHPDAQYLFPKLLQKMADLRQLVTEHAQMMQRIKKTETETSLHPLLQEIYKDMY
Experiment: Displacement of [3H]GW2433 from Homo sapiens (human) PPARdelta receptor by scintillation proximity assay
Attribute Measured: IC50

>>> df
                  compound_smiles  result_value
0  CCCCCCCC/C=C\CCCCCCCCCCCC(=O)O       > 30 µM
1                 CCCCCCCCCC(=O)O       > 30 µM
2     CCCCCCCCCCCCCCCCCCCCCC(=O)O       > 30 µM

* * *

System: Peroxisome proliferator-activated receptor gamma (Homo sapiens, UniProt P37231)
Sequence (P37231 whole entry): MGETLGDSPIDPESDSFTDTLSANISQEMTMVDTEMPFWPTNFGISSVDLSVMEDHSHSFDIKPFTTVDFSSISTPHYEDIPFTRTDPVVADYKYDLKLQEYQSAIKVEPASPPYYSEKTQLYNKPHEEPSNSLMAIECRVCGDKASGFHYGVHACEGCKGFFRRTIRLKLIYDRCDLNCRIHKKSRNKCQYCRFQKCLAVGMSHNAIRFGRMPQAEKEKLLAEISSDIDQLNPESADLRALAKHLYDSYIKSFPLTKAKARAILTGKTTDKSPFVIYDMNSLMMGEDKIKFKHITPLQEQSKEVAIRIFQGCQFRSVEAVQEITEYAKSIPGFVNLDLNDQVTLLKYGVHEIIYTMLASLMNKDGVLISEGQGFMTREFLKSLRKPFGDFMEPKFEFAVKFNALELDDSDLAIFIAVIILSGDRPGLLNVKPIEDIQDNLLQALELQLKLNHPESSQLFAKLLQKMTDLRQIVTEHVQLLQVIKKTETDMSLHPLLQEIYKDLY
Experiment: Displacement of [3H]BRL49653 from Homo sapiens (human) PPARgamma receptor by scintillation proximity assay
Attribute Measured: log10 of IC50 (log10 of the value in µM)

>>> df
                            compound_smiles  result_value
0                  CCCCCC/C=C\CCCCCCCC(=O)O          0.81
1                           CCCCCCCCCC(=O)O          1.48
2                       CCCCCCCCCCCCCC(=O)O          1.32
3  CC/C=C\C/C=C\C/C=C\C/C=C\C/C=C\CCCC(=O)O          0.20
4                CCCCCCCC/C=C\CCCCCCCC(=O)O          0.61
5     CCCCC/C=C\C/C=C\C/C=C\C/C=C\CCCC(=O)O          0.20
6             CCCCC/C=C\C/C=C\CCCCCCCC(=O)O          0.79
